Tested on: 292921-168-R-J2-PDC spheroids with HUVEC/MSC, viability
Experiment notes: Anticancer human tumor 292921-168-R-J2-PDC patient-derived pancreatic carcinoma cell line growth inhibition [TAK]
Experimental context: second compound 3 µM; first compound 0.0316 µM; stronger effect = lower value
Property name: viability, T/C

Consider the following illustrative entries.
Ask: Which viability, T/C value is on record for CC(C)(C)c1nc(-c2cccc(NS(=O)(=O)c3c(F)cccc3F)c2F)c(-c2ccnc(N)n2)s1 + CC(C)NCC(C(=O)N1CCN(c2ncnc3c2C(C)CC3O)CC1)c1ccc(Cl)cc1 ?
Result: 83.4%

Ask: Which viability, T/C value is on record for CC(C)CC(NC(=O)CNC(=O)c1cc(Cl)ccc1Cl)B1OC(=O)CC(CC(=O)O)(C(=O)O)O1 (stereo not drawn) + CC(C)NCC(C(=O)N1CCN(c2ncnc3c2C(C)CC3O)CC1)c1ccc(Cl)cc1 ?
Result: 40.9%

Continuing:
Ask: Which viability, T/C value is on record for CC(C)n1nc(-c2ccc3oc(N)nc3c2)c2c(N)ncnc21 + CC(C)NCC(C(=O)N1CCN(c2ncnc3c2C(C)CC3O)CC1)c1ccc(Cl)cc1 ?
Result: 34.2%

----------
Examples of compounds with documented viability, T/C follow.
Test system: 292921-168-R-J2-PDC spheroids with HUVEC/MSC, viability
Experiment notes: Anticancer human tumor 292921-168-R-J2-PDC cell line growth inhibition [TAK];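 also: spheroids exposed to drugs for seven days before readout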
Experimental context: second compound 9.49 µM; first compound 0.001 µM; stronger effect = lower value
Express your answer in %, writing the number without its unit.

Ask: Which viability, T/C value is on record for CC(C)n1nc(-c2ccc3oc(N)nc3c2)c2c(N)ncnc21 + CC(C)NCC(C(=O)N1CCN(c2ncnc3c2C(C)CC3O)CC1)c1ccc(Cl)cc1 ?
Result: 57

Ask: Which viability, T/C value is on record for CC(C)CC(NC(=O)CNC(=O)c1cc(Cl)ccc1Cl)B1OC(=O)CC(CC(=O)O)(C(=O)O)O1 (centres undefined) + CC(C)NCC(C(=O)N1CCN(c2ncnc3c2C(C)CC3O)CC1)c1ccc(Cl)cc1 ?
Result: 60.3

Ask: Which viability, T/C value is on record for COC1CC2CCC(C)C(O)(O2)C(=O)C(=O)N2CCCCC2C(=O)OC(C(C)CC2CCC(OCCO)C(OC)C2)CC(=O)C(C)C=C(C)C(O)C(OC)C(=O)C(C)CC(C)C=CC=CC=C1C (centres undefined) + CC(C)NCC(C(=O)N1CCN(c2ncnc3c2C(C)CC3O)CC1)c1ccc(Cl)cc1 ?
Result: 39.8

Lab note: next compound to report on.
Ask: Which viability, T/C value is on record for CC(C)CC(NC(=O)C(Cc1ccccc1)NC(=O)c1cnccn1)B(O)O (centres undefined) + CC(C)NCC(C(=O)N1CCN(c2ncnc3c2C(C)CC3O)CC1)c1ccc(Cl)cc1 ?
Result: 58.5

----------
Test system: 292921-168-R-J2-PDC spheroids with HUVEC/MSC, viability
Experiment notes: Anticancer human tumor 292921-168-R-J2-PDC cell line growth inhibition [TAK];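 also: spheroids exposed to drugs for seven days before readout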
Experimental context: second compound 0.3 µM; first compound 0.00316 µM; stronger effect = lower value
// returns Not satisfied unless viability, T/C is strictly below 70%, in which case Satisfied

Past entries and their recorded results:
Ask: Please check: viability, T/C for CC(C)n1nc(-c2ccc3oc(N)nc3c2)c2c(N)ncnc21 + CC(C)NCC(C(=O)N1CCN(c2ncnc3c2C(C)CC3O)CC1)c1ccc(Cl)cc1 , strictly under 70% or not?
Result: Satisfied

Ask: Please check: viability, T/C for CC(C)CC(NC(=O)CNC(=O)c1cc(Cl)ccc1Cl)B1OC(=O)CC(CC(=O)O)(C(=O)O)O1 (stereo not given) + CC(C)NCC(C(=O)N1CCN(c2ncnc3c2C(C)CC3O)CC1)c1ccc(Cl)cc1 , strictly under 70% or not?
Result: Not satisfied

Ask: Please check: viability, T/C for COC1CC2CCC(C)C(O)(O2)C(=O)C(=O)N2CCCCC2C(=O)OC(C(C)CC2CCC(OCCO)C(OC)C2)CC(=O)C(C)C=C(C)C(O)C(OC)C(=O)C(C)CC(C)C=CC=CC=C1C (stereo not given) + CC(C)NCC(C(=O)N1CCN(c2ncnc3c2C(C)CC3O)CC1)c1ccc(Cl)cc1 , strictly under 70% or not?
Result: Satisfied

Continuing:
Ask: Please check: viability, T/C for COc1c(OCCCN2CCOCC2)ccc2c3n(c(=NC(=O)c4cnc(N)nc4)nc12)CCN3 + CC(C)NCC(C(=O)N1CCN(c2ncnc3c2C(C)CC3O)CC1)c1ccc(Cl)cc1 , strictly under 70% or not?
Result: Satisfied

----------
Examples of compounds with documented viability, T/C follow.
System: 292921-168-R-J2-PDC spheroids with HUVEC/MSC, viability
Experiment notes: Anticancer human tumor 292921-168-R-J2-PDC cell line growth inhibition [TAK];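 also: spheroids exposed to drugs for seven days before readout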
Experimental context: second compound 9.49 µM; first compound 1 µM; stronger effect = lower value
Express your answer in %, writing the number without its unit.

Consider the following illustrative entries.
Ask: Which viability, T/C value is on record for CCCS(=O)(=O)Nc1ccc(F)c(C(=O)c2c[nH]c3ncc(-c4ccc(Cl)cc4)cc23)c1F + CC(C)NCC(C(=O)N1CCN(c2ncnc3c2C(C)CC3O)CC1)c1ccc(Cl)cc1 ?
Result: 75.4

Ask: Which viability, T/C value is on record for COc1c(OCCCN2CCOCC2)ccc2c3n(c(=NC(=O)c4cnc(N)nc4)nc12)CCN3 + CC(C)NCC(C(=O)N1CCN(c2ncnc3c2C(C)CC3O)CC1)c1ccc(Cl)cc1 ?
Result: 7.72

Ask: Which viability, T/C value is on record for Cc1nc(NC(=O)N2CCCC2C(N)=O)sc1-c1ccnc(C(C)(C)C(F)(F)F)c1 (centres undefined) + CC(C)NCC(C(=O)N1CCN(c2ncnc3c2C(C)CC3O)CC1)c1ccc(Cl)cc1 ?
Result: 21.1

Continuing:
Ask: Which viability, T/C value is on record for CC(C)(C)c1nc(-c2cccc(NS(=O)(=O)c3c(F)cccc3F)c2F)c(-c2ccnc(N)n2)s1 + CC(C)NCC(C(=O)N1CCN(c2ncnc3c2C(C)CC3O)CC1)c1ccc(Cl)cc1 ?
Result: 42.5

----------
Examples of compounds with documented viability, T/C follow.
Tested on: 292921-168-R-J2-PDC spheroids with HUVEC/MSC, viability
Experiment notes: Anticancer human tumor 292921-168-R-J2-PDC cell line growth inhibition [TAK];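 also: spheroids exposed to drugs for seven days before readout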
Experimental context: second compound 30 µM; first compound 0.000316 µM; stronger effect = lower value
Express your answer in %, writing the number without its unit.

Ask: Which viability, T/C value is on record for COC1CC2CCC(C)C(O)(O2)C(=O)C(=O)N2CCCCC2C(=O)OC(C(C)CC2CCC(OCCO)C(OC)C2)CC(=O)C(C)C=C(C)C(O)C(OC)C(=O)C(C)CC(C)C=CC=CC=C1C (centres undefined) + CC(C)NCC(C(=O)N1CCN(c2ncnc3c2C(C)CC3O)CC1)c1ccc(Cl)cc1 ?
Result: 33.4

Ask: Which viability, T/C value is on record for CC(C)n1nc(-c2ccc3oc(N)nc3c2)c2c(N)ncnc21 + CC(C)NCC(C(=O)N1CCN(c2ncnc3c2C(C)CC3O)CC1)c1ccc(Cl)cc1 ?
Result: 43.4

Ask: Which viability, T/C value is on record for CC(C)CC(NC(=O)CNC(=O)c1cc(Cl)ccc1Cl)B1OC(=O)CC(CC(=O)O)(C(=O)O)O1 (centres undefined) + CC(C)NCC(C(=O)N1CCN(c2ncnc3c2C(C)CC3O)CC1)c1ccc(Cl)cc1 ?
Result: 41.4

Lab note: next compound to report on.
Ask: Which viability, T/C value is on record for CC(C)CC(NC(=O)C(Cc1ccccc1)NC(=O)c1cnccn1)B(O)O (centres undefined) + CC(C)NCC(C(=O)N1CCN(c2ncnc3c2C(C)CC3O)CC1)c1ccc(Cl)cc1 ?
Result: 41.3

----------
Tested on: 292921-168-R-J2-PDC spheroids with HUVEC/MSC, viability
Experiment notes: Anticancer human tumor 292921-168-R-J2-PDC cell line growth inhibition [TAK];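 also: spheroids exposed to drugs for seven days before readout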
Experimental context: curve of first compound; second compound 0.949 µM
Property name: pIC50
Convention used: pIC50 is expressed as -log10 of the molar concentration.

Consider the following illustrative entries.
Ask: Which pIC50 value is on record for CC(=O)Nc1cccc(-n2c(=O)n(C3CC3)c(=O)c3c(Nc4ccc(I)cc4F)n(C)c(=O)c(C)c32)c1 + CC(C)NCC(C(=O)N1CCN(c2ncnc3c2C(C)CC3O)CC1)c1ccc(Cl)cc1 ?
Result: 9.47

Ask: Which pIC50 value is on record for CC(C)CC(NC(=O)CNC(=O)c1cc(Cl)ccc1Cl)B1OC(=O)CC(CC(=O)O)(C(=O)O)O1 (stereo not given) + CC(C)NCC(C(=O)N1CCN(c2ncnc3c2C(C)CC3O)CC1)c1ccc(Cl)cc1 ?
Result: 7.62

Continuing:
Ask: Which pIC50 value is on record for COC1CC2CCC(C)C(O)(O2)C(=O)C(=O)N2CCCCC2C(=O)OC(C(C)CC2CCC(OCCO)C(OC)C2)CC(=O)C(C)C=C(C)C(O)C(OC)C(=O)C(C)CC(C)C=CC=CC=C1C (stereo not given) + CC(C)NCC(C(=O)N1CCN(c2ncnc3c2C(C)CC3O)CC1)c1ccc(Cl)cc1 ?
Result: 8.32
